Sourced from the supplement of paper PMC4466140

Biological target: SpHse1
Experiment: SPOT peptide array binding signal intensity (averaged, normalized) (arbitrary units (background-subtracted, floor 0; scale differs between SH3 domains)); higher = stronger binding of the SH3 domain to the peptide
Is SPOT peptide array binding signal intensity at least 100? Then T. If not, F.

These recorded examples may help you get a feel for the data.
FTLPPPPPPPGLDEL F
MAMRPIPPLPTESEY F
PKRRAPPPVPKKPSS T
IPSRPAPKPPSSASA F
GDHPKGPPPPPPPPD F

Evaluate MARRRLPDRPPNGIG : SPOT peptide array binding signal intensity at minimum 100?
T
